target: Tie-2 (Homo sapiens); construct: GST-Tie2/Tek (aa 771-1124); GST (N); assay: RTK ELISA, recombinant kinase domain, Tie-2; conditions: GST-Tie2/Tek (aa 771-1124) expressed in baculovirus infected insect cells
Sequence (Q02763 771-1124): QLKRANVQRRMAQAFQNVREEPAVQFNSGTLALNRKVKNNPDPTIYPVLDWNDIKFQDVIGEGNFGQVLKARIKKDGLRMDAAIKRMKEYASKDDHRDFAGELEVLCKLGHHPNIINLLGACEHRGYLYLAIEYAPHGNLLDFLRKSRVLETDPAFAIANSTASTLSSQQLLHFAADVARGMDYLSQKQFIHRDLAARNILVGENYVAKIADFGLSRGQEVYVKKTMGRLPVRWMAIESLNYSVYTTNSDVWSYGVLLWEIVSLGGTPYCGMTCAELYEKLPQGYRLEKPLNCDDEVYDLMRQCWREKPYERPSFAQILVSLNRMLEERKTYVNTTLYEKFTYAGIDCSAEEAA
pIC50: −log10 of the molar value. Counter-ions that a name gives are not always drawn.
observationType: pIC50

Solved entries (count: 4):
molecule: O=C(O)c1ccc(Nc2nc(-c3ccc(N4CCCC4)cc3)cs2)cc1 [Number 20, Hydrobromide]
measuredResult: > 6.00
--
molecule: CCN(CC)c1ccc(-c2csc(N(C)c3ccccc3)n2)cc1 [Number 27, Hydrobromide]
measuredResult: < 4.30
--
molecule: CCN(CC)c1ccc(-c2coc(N)n2)cc1 [Number 24, Hydrobromide]
measuredResult: 5.30
--
molecule: c1cc(Nc2nc(-c3ccc(N4CCCC4)cc3)cs2)ccc1Nc1nc(-c2ccc(N3CCCC3)cc2)cs1 [Number 18, Dihydrobromide]
measuredResult: < 5.00

Q: Give the measured pIC50 of CCN(CC)c1ccc(-c2csc(NCc3ccccc3)n2)cc1 [Number 28, Hydrobromide] .
A: < 4.30
